Details: in DMF, 305.65 K
parameter_measured: solubility (mole fraction)
Lab note: jot the number down without any unit.

Ask: Quick one: give measured solubility (mole fraction) for `O=C1C=CC(=O)N1c1cc(F)c(Br)c(F)c1`
Result: 0.0301

----------
Settings: in DMF, 289.45 K
parameter_measured: solubility (mole fraction)
Lab note: jot the number down without any unit.

Ask: Quick one: give measured solubility (mole fraction) for `O=C1C=CC(=O)N1c1cc(F)c(Br)c(F)c1`
Result: 0.0208

----------
Conditions: in 2-butanone, 316.25 K
parameter_measured: solubility (mole fraction)
Lab note: jot the number down without any unit.

Ask: Quick one: give measured solubility (mole fraction) for `O=C1C=CC(=O)N1c1cc(F)c(Br)c(F)c1`
Result: 0.0187

----------
Conditions: in DMF, 333.55 K
parameter_measured: solubility (mole fraction)
Lab note: jot the number down without any unit.

Ask: Quick one: give measured solubility (mole fraction) for `O=C1C=CC(=O)N1c1cc(F)c(Br)c(F)c1`
Result: 0.0582

----------
Details: in DMF, 342.65 K
parameter_measured: solubility (mole fraction)
Lab note: jot the number down without any unit.

Ask: Quick one: give measured solubility (mole fraction) for `O=C1C=CC(=O)N1c1cc(F)c(Br)c(F)c1`
Result: 0.0722

----------
Settings: in DMSO, 328.05 K
parameter_measured: solubility (mole fraction)
Lab note: jot the number down without any unit.

Ask: Quick one: give measured solubility (mole fraction) for `O=C1C=CC(=O)N1c1cc(F)c(Br)c(F)c1`
Result: 0.0348

----------
Settings: in cyclohexanone, 291.25 K
parameter_measured: solubility (mole fraction)
Lab note: jot the number down without any unit.

Ask: Quick one: give measured solubility (mole fraction) for `O=C1C=CC(=O)N1c1cc(F)c(Br)c(F)c1`
Result: 0.0151

----------
Details: in 2-butanone, 345.25 K
parameter_measured: solubility (mole fraction)
Lab note: jot the number down without any unit.

Ask: Quick one: give measured solubility (mole fraction) for `O=C1C=CC(=O)N1c1cc(F)c(Br)c(F)c1`
Result: 0.0432

----------
Settings: in cyclohexanone, 341.35 K
parameter_measured: solubility (mole fraction)
Lab note: jot the number down without any unit.

Ask: Quick one: give measured solubility (mole fraction) for `O=C1C=CC(=O)N1c1cc(F)c(Br)c(F)c1`
Result: 0.0572

----------
Settings: in 1,4-dioxane, 310.05 K
parameter_measured: solubility (mole fraction)
Lab note: jot the number down without any unit.

Ask: Quick one: give measured solubility (mole fraction) for `O=C1C=CC(=O)N1c1cc(F)c(Br)c(F)c1`
Result: 0.023

----------
Settings: in cyclohexanone, 300.15 K
parameter_measured: solubility (mole fraction)
Lab note: jot the number down without any unit.

Ask: Quick one: give measured solubility (mole fraction) for `O=C1C=CC(=O)N1c1cc(F)c(Br)c(F)c1`
Result: 0.0191

----------
Settings: in DMF, 308.85 K
parameter_measured: solubility (mole fraction)

Ask: Quick one: give measured solubility (mole fraction) for `O=C1C=CC(=O)N1c1cc(F)c(Br)c(F)c1`
Result: 0.0324

----------
Conditions: in cyclohexanone, 285.15 K
parameter_measured: solubility (mole fraction)
Lab note: jot the number down without any unit.

Ask: Quick one: give measured solubility (mole fraction) for `O=C1C=CC(=O)N1c1cc(F)c(Br)c(F)c1`
Result: 0.0129

----------
Conditions: in toluene, 334.45 K
parameter_measured: solubility (mole fraction)
Lab note: jot the number down without any unit.

Ask: Quick one: give measured solubility (mole fraction) for `O=C1C=CC(=O)N1c1cc(F)c(Br)c(F)c1`
Result: 0.014
